Ref: ChEMBL document CHEMBL5137093

- Procedure summary: Relative Cmax ratio of Atazanavir in Sprague-Dawley rat at 3 ml/kg,po measured upto 24 hrs by UPLC-MS/MS analysis
- Format: ADME
- Experimental conditions: in vivo
Exam item: assign class 1 to entries whose Ratio is below 2 and class 0 to entries at or above 2. Note that a value of exactly 2 receives class 0.

COC(=O)N[C@H](C(=O)N[C@@H](Cc1ccccc1)[C@H](CN(Cc1ccc(-c2ccccn2)cc1)NC(=O)[C@@H](NC(=O)OC)C(C)(C)C)OC(=O)OC(OC(=O)[C@H](N)C(C)C)C(C)C)C(C)(C)C (stereo in doubt; 5i) = class 0
COC(=O)N[C@H](C(=O)N[C@@H](Cc1ccccc1)[C@H](CN(Cc1ccc(-c2ccccn2)cc1)NC(=O)[C@@H](NC(=O)OC)C(C)(C)C)OC(=O)OC(OC(=O)[C@@H](N)C(C)C)C1CCCCC1)C(C)(C)C (stereo in doubt; 4n) = class 1
CN[C@H](C(=O)OC(OC(=O)O[C@@H](CN(Cc1ccc(-c2ccccn2)cc1)NC(=O)[C@@H](NC(=O)OC)C(C)(C)C)[C@H](Cc1ccccc1)NC(=O)[C@@H](NC(=O)OC)C(C)(C)C)C(C)C)C(C)C (stereo in doubt; 5e) = class 0

Lab log: compare recorded Ratio with 2; is it strictly lower for CN[C@H](C(=O)OC(OC(=O)O[C@@H](CN(Cc1ccc(-c2ccccn2)cc1)NC(=O)[C@@H](NC(=O)OC)C(C)(C)C)[C@H](Cc1ccccc1)NC(=O)[C@@H](NC(=O)OC)C(C)(C)C)C(C)C)C(C)C (stereo in doubt; 5f) ? class 0

Lab log: compare recorded Ratio with 2; is it strictly lower for COC(=O)N[C@H](C(=O)N[C@@H](Cc1ccccc1)[C@H](CN(Cc1ccc(-c2ccccn2)cc1)NC(=O)[C@@H](NC(=O)OC)C(C)(C)C)OC(=O)OC(OC(=O)[C@H](C)N)C(C)C)C(C)(C)C (stereo in doubt; 3q) ? class 0

Lab log: compare recorded Ratio with 2; is it strictly lower for COC(=O)N[C@H](C(=O)N[C@@H](Cc1ccccc1)[C@H](CN(Cc1ccc(-c2ccccn2)cc1)NC(=O)[C@@H](NC(=O)OC)C(C)(C)C)OC(=O)OC(OC(=O)[C@H](C(C)C)N(C)C)C(C)C)C(C)(C)C (stereo in doubt; 5g) ? class 0

Lab log: compare recorded Ratio with 2; is it strictly lower for COC(=O)N[C@H](C(=O)N[C@@H](Cc1ccccc1)[C@H](CN(Cc1ccc(-c2ccccn2)cc1)NC(=O)[C@@H](NC(=O)OC)C(C)(C)C)OC(=O)OC(OC(=O)CCN)C(C)C)C(C)(C)C (stereo in doubt; 3z) ? class 0

Lab log: compare recorded Ratio with 2; is it strictly lower for COC(=O)N[C@H](C(=O)N[C@@H](Cc1ccccc1)[C@H](CN(Cc1ccc(-c2ccccn2)cc1)NC(=O)[C@@H](NC(=O)OC)C(C)(C)C)OC(=O)OC(OC(=O)[C@@H](N)C(C)C)C1CCCCC1)C(C)(C)C (stereo in doubt; 4o) ? class 1
